These measurements were taken from the supplement of paper PMC11208160.

assay_name: recombinant UMI read abundance after kanamycin selection (control-corrected) (log10(CPM+1)); higher = more efficient recombination; extreme values may be limits of the assay; sequences stand for … in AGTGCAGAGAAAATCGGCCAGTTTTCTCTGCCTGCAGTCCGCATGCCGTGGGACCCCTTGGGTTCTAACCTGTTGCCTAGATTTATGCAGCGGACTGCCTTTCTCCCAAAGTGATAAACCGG…AGGTTGGTTTCACT; site = the 11-nt donor
recombinant UMI read abundance (log10) by entry:
Please give the numeric answer without any surrounding text.

For this sequence ( TCAAGGCCATGGACCGGTTTTCCCGGTAATCCGTATTTGGT (site TCAAGGCCTAC) ), measured recombinant UMI read abundance (log10) is 0.00348

Entry ATACTATCATGGACCGGTTTTCCCGGTAATCCGTATTTGTT (site ATACTATCTAA) ; recombinant UMI read abundance (log10) = 2.54

Summary for this sequence, CGTGAGTCATGGACCGGTTTTCCCGGTAATCCGTATTTGCC (site CGTGAGTCTGG) : recombinant UMI read abundance (log10) is 1.97

Others:
Per the record, GGCGAACCATGGACCGGTTTTCCCGGTAATCCGTATTTGAC (site GGCGAACCTGT) has recombinant UMI read abundance (log10) of 0

For AATGTGTCATGGACCGGTTTTCCCGGTAATCCGTATTTGAC (site AACGTGTCTGT) the sequence record lists recombinant UMI read abundance (log10) as 0

Field recombinant UMI read abundance (log10) (entry GGCACTCCATGGACCGGTTTTCCCGGTAATCCGTATTTGAA (site GGCATTCCTTT) ) reads 0.00807

The sequence identified as CTCGTATCATGGACCGGTTTTCCCGGTAATCCGTATTTGAG (site CTAGTATCTGT) registered its recombinant UMI read abundance (log10) at 0

Value of measured recombinant UMI read abundance (log10) for the entry TACTTGGCATGGACCGGTTTTCCCGGTAATCCGTATTTGGA (site GACTTGGCTTC) : 0.00882

Consider ACAGTATCATGGACCGGTTTTCCCGGTAATCCGTATTTGGT (site ACAGTATCTTG) . Its measured recombinant UMI read abundance (log10) is 0.731

recombinant UMI read abundance (log10) recorded for this sequence, TGCACGTCATGGACCGGTTTTCCCGGTAATCCGTATTTGTC (site TGCACGTCTGA) , is 1.26

Entry under test: GCTTGCCCATGGACCGGTTTTCCCGGTAATCCGTATTTGAT (site GCTTGCCCTCT) . Its recombinant UMI read abundance (log10) was 0.0236

Record AATGTGTCATGGACCGGTTTTCCCGGTAATCCGTATTTGTC (site AATGTGTCTGC) . Reported recombinant UMI read abundance (log10): 0.999

Looking up GTTCGAACATGGACCGGTTTTCCCGGTAATCCGTATTTGGC (site GTTTGAACTGC) , I found its recombinant UMI read abundance (log10) recorded as 0

----------
assay_name: recombinant barcode read abundance after kanamycin selection (control-corrected) (log10(CPM+1)); higher = more efficient recombination; sequences stand for … in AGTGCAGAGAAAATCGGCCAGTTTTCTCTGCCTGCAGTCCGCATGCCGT…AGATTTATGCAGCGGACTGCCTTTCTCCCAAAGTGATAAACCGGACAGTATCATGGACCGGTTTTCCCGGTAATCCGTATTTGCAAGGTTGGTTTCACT; site = the 11-nt target
value_type: recombinant barcode read abundance (log10)

Some solved entries appear below for comparison.
Notebook: GTTACCGCTTGGGTTCTAACCTGTTGCCT (site GTGACCGCTAG) , recombinant barcode read abundance (log10) read as 0.0865

Reported recombinant barcode read abundance (log10) ( GCATCGTCTTGGGTTCTAACCTGTTGCCT (site GCTTCGTCTAG) ) = 0.0989

The sequence listed as TGGAAGTCTTGGGTTCTAACCTGTTGCTT (site TGAAAGCCTAA) shows recombinant barcode read abundance (log10) equal to 0

Next item in the queue.
Quick note, recombinant barcode read abundance (log10) for CTTACGACTTGGGTTCTAACCTGTTGCCT (site GTTACAACTAG) landed at 0.355
